Test system: blackgrass (Alopecurus myosuroides)
PROTOCOL SUMMARY: Test A postemergence
Type: in vivo
STUDY CONDITIONS: Alopecurus myosuroides, post-emergence, 240 h, 125 g ai/ha, postemergence, visual injury vs untreated controls after approx. 10 d; 0 = no effect, 100 = complete control; read-out: Blackgrass plant response rating (0 to 100 scale)
ENDPOINT NAME: pest or weed control at 125 g/ha (%)
// return numeric value only (unit: %, not printed)

MOLECULAR STRING	pest or weed control at 125 g/ha / %
CN1C[C@H](c2ccc(Cl)c(F)c2)[C@@H](C(=O)Nc2ccc(F)c(F)c2F)C1=O	60
Cc1cc([C@H]2CN(C)C(=O)[C@@H]2C(=O)Nc2ccccc2F)no1	0

In one line, give reported pest or weed control at 125 g/ha of the entry COc1ccc(C(F)(F)F)cc1[C@H]1CN(C)C(=O)[C@@H]1C(=O)Nc1ccccc1F . 50

In one line, give reported pest or weed control at 125 g/ha of the entry CON1CC[C@H](c2cccc(C(F)(F)F)c2)[C@@H](C(=O)Nc2cccc(F)c2F)C1=O . 0
